The measurements presented in this section are drawn from PubChem BioAssay (NCI).

Test system: UO-31 renal
methodDescription: NCI tumour cell line growth inhibition, 48 h
Consider the following compounds; for each one, report its GI50.

GI50 in this record for "Cc1cc(S(N)(=O)=O)c(S/C(=N\NS(=O)(=O)c2ccccc2)c2ccc(Cl)cc2)cc1Cl" : > 100000 nM

GI50 in this record for "COc1ccc2c(c1)C(=O)c1c-2c(OCCN(C)C)nc2cc(OC)c(OC)cc12" : 658 nM

GI50 in this record for COc1ccc(C2NC(=S)NC3=C2CCOc2c3ccc3ccccc23)cc1 (stereo unspecified) : 98300 nM

GI50 in this record for "COc1cc2c3c(n(CCCNCCCNCCCN)c(=O)c2cc1OC)-c1cc2c(cc1C3=O)OCO2" : > 100000 nM

GI50 in this record for "COc1ccc(-c2csc(Nc3cccc(-c4csc(C)n4)c3)n2)cc1" : 2540 nM

GI50 in this record for CN(C)c1ccc(C(O)C2=CC(=O)c3ccccc3C2=O)cc1 (stereo unspecified) : 6460 nM

GI50 in this record for "COc1ccc(C2=Nn3c(nnc3-n3nc(C)cc3C)SC2)cc1" : 212 nM

GI50 in this record for O=CN1N=C(c2cccc(Nc3ccnc4cc(Cl)ccc34)c2)CC1c1ccc(Cl)cc1 (stereo unspecified) : 878 nM

GI50 in this record for "COc1ccc(-c2cc(/C=C/C(=O)c3ccc(N)cc3)[nH]n2)cc1" : 1180 nM

GI50 in this record for "CCOC(=O)c1c(NC(=O)c2ccc(Cl)cc2)sc2c(CN(C)C)c(O)ccc12" : 4880 nM

GI50 in this record for COCC(C(=O)OC1C/C=C/C=C/C(=O)OC(C(C)C(O)C(C)CCC(OC(=O)C(C)N(C)C)C(C)C(OC(C)=O)C(C)/C=C/N(C)C=O)C/C=C/C(OC)CC(C)C/C=C(\C)C(OC)CCC(C)C(O)C1C)N(C)C (stereo unspecified) : 1.04 nM

GI50 in this record for "CN(C)c1ccc(-c2ccc(-c3ccc(C(=N)N)cn3)o2)cc1" : 1480 nM

GI50 in this record for COc1cc(NC2CCCCC2O)c2nc(-c3ccc(Cl)cc3)ccc2c1 (stereo unspecified) : 6310 nM

GI50 in this record for "C[C@@H]1CCc2ncc(F)cc2[C@H]2CCCN2c2ccn3ncc(c3n2)C(=O)N1" : 29800 nM

GI50 in this record for CSC1=Nc2c(c(C)c(-c3ccccc3)n2COC(CO)CO)C2=NC(=O)CC(C)N12 (stereo unspecified) : > 100000 nM

GI50 in this record for C[As](C)SC1OCC(O)C(O)C1O (stereo unspecified) : 109 nM

----------
Consider the following compounds; for each one, report its TGI.
Test system: SK-MEL-5 melanoma
methodDescription: NCI tumour cell line growth inhibition, 48 h
Could you give me the number in µM? Just the number is fine.

TGI in this record for "COc1cc(OC)c2c(=O)c3cccc(C)c3n(C)c2c1" : 60.6

TGI in this record for "COc1ccc(/C=C\c2cc(OC)c(OC)c(OC)c2)cc1" : 14.5

TGI in this record for NC1=NCN(C2OC(CO)C(O)C2O)C(=O)N1 (stereo not given) : 335

TGI in this record for "COc1cc([C@@H]2c3cc4c(cc3[C@@H](Nc3ccc(Cl)cc3C(=O)c3ccccc3)[C@H]3COC(=O)[C@H]23)OCO4)cc(OC)c1OC" : 16

TGI in this record for "COc1ccc(-c2csc(Nc3cccc(-c4csc(C)n4)c3)n2)cc1" : 7.85

TGI in this record for "CC(C)(C)O/N=C/c1cc(NC(=S)c2ccsc2)ccc1Cl" : 16.9

TGI in this record for COc1cc(NC2CCCCC2O)c2nc(-c3ccc(Cl)cc3)ccc2c1 (stereo not given) : 23.1

TGI in this record for COc1ccc(C(O)c2cc3c(N)c(C(=O)Nc4cccc(Br)c4C)sc3nc2C)cc1 (stereo not given) : 0.922
